assay notes: Selectivity index, ratio of CC50 for African green monkey Vero cells to MIC90 for Staphylococcus aureus ATCC 29213
Type: toxicity
condition summary: read-out: Selectivity Index
Please go through the items and note down their selectivity ratio.

(Q) Which selectivity ratio value is on record for CC(C)n1c2ccccc2c2ccc3c(c21)C(=O)C1(c2ccccc2)OC1C3=O (configuration not stated) ?
(A) > 200

(Q) Now give it for CC(C)n1c2ccccc2c2ccc3c(c21)C(=O)C1OC1C3=O (configuration not stated) too.
(A) > 200

###

assay notes: L-cysteine reactivity in pH 7.4 phosphate buffer assessed as compound remaining at 100 uM incubated for 1 hr by HPLC analysis
reported metric: Activity (%)
State just the number; it will be interpreted in %.

(Q) Which Activity value is on record for Cn1c2ccccc2c2ccc3c(c21)C(=O)C1OC1C3=O (centres undefined) ?
(A) 27

(Q) Now give it for CCc1cc2c3ccccc3n(C(C)C)c2c2c1C(=O)C1OC1C2=O (centres undefined) too.
(A) 88

(Q) Now give it for Cc1cc2c([nH]c3ccccc32)c2c1C(=O)C1OC1C2=O (centres undefined) too.
(A) 86

(Q) Now give it for CCn1c2ccccc2c2ccc3c(c21)C(=O)C1OC1C3=O (centres undefined) too.
(A) 33

(Q) Now give it for Cc1cc2c3ccccc3n(C(C)C)c2c2c1C(=O)C1OC1C2=O (centres undefined) too.
(A) 84

(Q) Now give it for CC(C)n1c2ccccc2c2ccc3c(c21)C(=O)C1OC1C3=O (centres undefined) too.
(A) 34

(Q) Now give it for O=C1c2ccc3c([nH]c4ccccc43)c2C(=O)C2OC12 (centres undefined) too.
(A) 33

(Q) Now give it for O=C1c2ccc3c4ccccc4n(-c4ccccc4)c3c2C(=O)C2OC12 (centres undefined) too.
(A) 57

(Q) Now give it for CCn1c2ccccc2c2cc(C)c3c(c21)C(=O)C1OC1C3=O (centres undefined) too.
(A) 93

Source of measurements: ChEMBL document CHEMBL4359831
